# credit: the supplement of paper PMC13380429

tested on: Calu-3; test: cell viability relative to DMSO; higher = less toxic; settings: 72 h; 1 nM
Readout: cell viability

Molecule	cell viability
O=C(CBr)N1CC([N+](=O)[O-])([N+](=O)[O-])C1 [RRx-001]	101%

Could I get cell viability for every one of these entries?
1. CCCN1CC(NS(=O)(=O)N(CC)CC)CC2Cc3c(O)cccc3CC21 (stereo unspecified) [quinagolide]
2. COc1cc2nccc(Oc3ccc(NC(=O)NC4CC4)c(Cl)c3)c2cc1C(N)=O [lenvatinib]
3. O=C1[C@@H]2[C@H]3CC[C@H](C3)[C@@H]2C(=O)N1C[C@@H]1CCCC[C@H]1CN1CCN(c2nsc3ccccc23)CC1 [lurasidone]
4. CCCCC(CC)CCC(CC(C)C)OS(=O)(=O)O (stereo unspecified) [sodium-tetradecyl-sulfate]
5. CCc1nc(N)nc(N)c1-c1ccc(Cl)cc1 [pyrimethamine]

1: 85.9%; 2: 115%; 3: 99.8%; 4: 98.8%; 5: 101%

* * *

system: HepG2; experiment: drug sensitivity score (DSS) for viability; higher = more toxic; extreme values may be limits of the assay; conditions: 72 h
Readout: drug sensitivity score

Recorded drug sensitivity score, per entry:
Compound	drug sensitivity score
OC1(c2ccc(Cl)c(C(F)(F)F)c2)CCN(CCCC(c2ccc(F)cc2)c2ccc(F)cc2)CC1 [penfluridol]	5.3
c1ccc(-c2nn3c(c2-c2ccnc4cc(OCCN5CCOCC5)ccc24)CCC3)nc1	1.6
O=c1[nH]c2ccccc2n1CCCN1CCC(n2c(=O)[nH]c3cc(Cl)ccc32)CC1 [domperidone]	0
FCc1ccc(OCCOc2ccc(Cl)cc2Cl)c(Cl)n1	0.1
O=C(Nc1cnccc1Cl)N1CCN(Cc2ccc3c(c2)OC(F)(F)O3)CC1	4.7

Could I get drug sensitivity score for every one of these entries?
1. C[N+]1(C)[C@@H]2C[C@@H](OC(=O)C(O)(c3cccs3)c3cccs3)C[C@H]1[C@@H]1O[C@@H]12 [tiotropium]
2. O=C(O)CSc1nnc(Br)n1-c1ccc(C2CC2)c2ccccc12 [lesinurad]

1. 0
2. 0

Could I get drug sensitivity score for every one of these entries?
1. O=c1[nH]cnc2c1ncn2[C@H]1CC[C@@H](CO)O1 [didanosine]
2. CCOCCOc1ccccc1C(N)=O [etosalamide]

1. 0
2. 0

Could I get drug sensitivity score for every one of these entries?
1. O=C(NC1CCN(CCc2c[nH]c3ccccc23)CC1)c1ccccc1 [indoramin]
2. CCCCC(CC)CCC(CC(C)C)OS(=O)(=O)O (stereo not drawn) [sodium-tetradecyl-sulfate]
3. Nc1ccc(F)cc1NC(=O)c1ccc(CNC(=O)/C=C/c2cccnc2)cc1 [chidamide]

1. 0
2. 0
3. 7.4

Could I get drug sensitivity score for every one of these entries?
1. Clc1ccc(C(Cn2ccnc2)OCc2ccc(Sc3ccccc3)cc2)c(Cl)c1 (stereo not drawn) [fenticonazole]
2. CCCN(CCC)C(=O)C(CCC(=O)OCCCN1CCN(CCOC(=O)Cc2c(C)n(C(=O)c3ccc(Cl)cc3)c3ccc(OC)cc23)CC1)NC(=O)c1ccccc1 (stereo not drawn) [proglumetacin]
3. COC(=O)[C@@H]1[C@H]2C[C@H]3c4[nH]c5ccccc5c4CCN3C[C@@H]2CC[C@@H]1O [yohimbine]
4. C[C@@H](O)[C@H]1C(=O)N2C(C(=O)[O-])=C(SC3Cn4cnc[n+]4C3)[C@H](C)[C@H]12 (stereo partly drawn) [biapenem]
5. Cc1ccc2nc(NCCN)c3ncc(C)n3c2c1
6. CC(C)(C)c1ccc(CN(Cc2cccc(OCC(=O)O)c2)S(=O)(=O)c2cccnc2)cc1 [evatanepag]

[1, 1.1, 0.3, 0, 8.6, 0]
